target: Glutamate NMDA receptor (Rattus norvegicus) (UniProt P35439+Q00959+Q00960+Q00961+Q62645+Q8VHN2+Q9R1M7); experiment: Percent inhibition at the PCP site for displacement of [3H]TCP in rat brain homogenates at […]; type: tissue-based
Output YES for inhibition not less than 4%; output NO otherwise.

INPUT: Hi, just wondering whether CNC12CCCCC1c1ccccc1C2 (stereo unspecified) shows inhibition of 4% or higher.
OUTPUT: NO

INPUT: Hi, just wondering whether CNC12CC=CCC1c1ccccc1C2 (stereo unspecified) shows inhibition of 4% or higher.
OUTPUT: NO

INPUT: Hi, just wondering whether NCC12CCCCC1c1ccccc1C2 (stereo unspecified) shows inhibition of 4% or higher.
OUTPUT: NO

INPUT: Hi, just wondering whether CNC12CCCCC1Cc1cc(OC)ccc12 (stereo unspecified) shows inhibition of 4% or higher.
OUTPUT: YES

INPUT: Hi, just wondering whether c1ccc(CNC23CCCCC2Cc2ccsc23)cc1 (stereo unspecified) shows inhibition of 4% or higher.
OUTPUT: YES

INPUT: Hi, just wondering whether "CNC[C@@H]1CC[C@@]2(NC)c3ccccc3C[C@H]2C1" shows inhibition of 4% or higher.
OUTPUT: NO

INPUT: Hi, just wondering whether c1ccc(CNC23CCCCCC2Cc2ccccc23)cc1 (stereo unspecified) shows inhibition of 4% or higher.
OUTPUT: YES

INPUT: Hi, just wondering whether NC12CCCCC1c1ccccc1C2 (stereo unspecified) shows inhibition of 4% or higher.
OUTPUT: NO

INPUT: Hi, just wondering whether CNCC12CCCCC1c1ccccc1C2 (stereo unspecified) shows inhibition of 4% or higher.
OUTPUT: NO

###

Provide the reported IC50 of each item.
target: Glutamate NMDA receptor; assay: Evaluated for their affinity at the PCP site for displacement of [3H]TCP in rat brain homogenates; type: tissue-based
Please reply with the bare figure in nM and do not write the unit itself.

INPUT: Entry under review: CC1CCCC2Cc3ccccc3C12N (stereo unspecified) . Reported IC50?
OUTPUT: 159

INPUT: Entry under review: NC12CCCCCC1Cc1ccccc12 (stereo unspecified) . Reported IC50?
OUTPUT: 304

INPUT: Entry under review: CNC12CCCCC1Sc1ccccc12 (stereo unspecified) . Reported IC50?
OUTPUT: 11.3

INPUT: Entry under review: c1ccc(C2(N3CCCCC3)CCCCC2)cc1 [PHENCYCLIDINE] . Reported IC50?
OUTPUT: 36.5

INPUT: Entry under review: CNC12CCCCCC1Cc1ccccc12 (stereo unspecified) . Reported IC50?
OUTPUT: 113

INPUT: Entry under review: "CN[C@]12CCCC[C@H]1Cc1ccccc12" . Reported IC50?
OUTPUT: 9.9

INPUT: Entry under review: CC[C@]1(c2ccccc2)OC[C@H]([C@@H]2CCCCN2)O1 [ETOXADROL] . Reported IC50?
OUTPUT: 107

INPUT: Entry under review: NC12CCC(CO)CC1Cc1ccccc12 (stereo unspecified) . Reported IC50?
OUTPUT: 253

INPUT: Entry under review: "CN[C@@]12CCCC[C@@H]1Cc1ccccc12.CN[C@]12CCCC[C@H]1Cc1ccccc12" . Reported IC50?
OUTPUT: 30

INPUT: Entry under review: CNC12CCCCC1Cc1ccsc12 (stereo unspecified) . Reported IC50?
OUTPUT: 66

INPUT: Entry under review: "CN[C@@]12CCCC[C@@H]1Cc1ccccc12" . Reported IC50?
OUTPUT: 107

INPUT: Entry under review: CNC12CCC(C)CC1Cc1ccccc12 (stereo unspecified) . Reported IC50?
OUTPUT: 95

INPUT: Entry under review: CCNC12CCCCC1Oc1ccccc12 (stereo unspecified) . Reported IC50?
OUTPUT: 141

INPUT: Entry under review: C=C1c2ccccc2C2(NC)CCCCC12 (stereo unspecified) . Reported IC50?
OUTPUT: 528

INPUT: Entry under review: "N[C@]12CCCC[C@H]1Cc1ccccc12" . Reported IC50?
OUTPUT: 13.4

INPUT: Entry under review: CNC12CCCCC1Cc1ccc(OC)cc12 (stereo unspecified) . Reported IC50?
OUTPUT: 22

###

target: Glutamate NMDA receptor; experiment: Evaluated for their affinity at the PCP site for displacement of [3H]TCP in rat brain homogenates; type: tissue-based
quantity: log10(IC50) (log10 of the value in nM)
Hi team, quick reminder: these entries are log10 of IC50 (nM).

INPUT: Entry under review: "CCN[C@]12CCCC[C@H]1Cc1ccccc12" . Reported log10(IC50)?
OUTPUT: 1.74

INPUT: Entry under review: CCNC12CCCCC1Cc1c(C)cccc12 (configuration not stated) . Reported log10(IC50)?
OUTPUT: 2.51

INPUT: Entry under review: CNC12CCCC1Cc1ccccc12 (configuration not stated) . Reported log10(IC50)?
OUTPUT: 2.54

INPUT: Entry under review: CNC12CCCCC1Cc1ccc(O)cc12 (configuration not stated) . Reported log10(IC50)?
OUTPUT: 1.22

INPUT: Entry under review: CNC12CCC(CO)CC1Cc1ccccc12 (configuration not stated) . Reported log10(IC50)?
OUTPUT: 3.60

INPUT: Entry under review: CNC12c3ccccc3CC1CCCC2C (configuration not stated) . Reported log10(IC50)?
OUTPUT: 1.90

INPUT: Entry under review: "CN[C@@]12CC[C@@H](CN)C[C@@H]1Cc1ccccc12" . Reported log10(IC50)?
OUTPUT: 0.26

###

target: Glutamate NMDA receptor; assay: Percent inhibition at the PCP site for displacement of [3H]TCP in rat brain homogenates at […]; assay type: tissue-based
quantity: IC50 (nM)
Please reply with the bare figure in nM and do not write the unit itself.

INPUT: Entry under review: NC12CCCC1Cc1ccccc12 (stereo unspecified) . Reported IC50?
OUTPUT: 5
